// reported pKd for each item listed
Experiment: Binding affinity to human telomeric 5'-biotin-d[T7(T2AG3)4]-3' assessed as dissociation constant (KD) by surface plasmon resonance assay
pKd (log units): -log10 of the concentration in mol/L.

Example entries begin here.
>  <compound>
N=C(N)NCCCn1cc(-c2ccc3ccc4ccc(-c5cn(CCCNC(=N)N)nn5)nc4c3n2)nn1

>  <measurement_kind>
pKd

>  <observed_value>
7.24

$$$$
>  <compound>
NCCn1cc(-c2ccc3ccc4ccc(-c5cn(CCN)nn5)nc4c3n2)nn1

>  <measurement_kind>
pKd

>  <observed_value>
6.86

$$$$
>  <compound>
N=C(N)NCCn1cc(-c2ccc3ccc4ccc(-c5cn(CCNC(=N)N)nn5)nc4c3n2)nn1

>  <measurement_kind>
pKd

>  <observed_value>
7.12

$$$$

Moving on to the next compound.
Task: Quick one: pKd for "CC(C)/N=C(/NCCCn1cc(-c2ccc3ccc4ccc(-c5cn(CCCN/C(=N\C(C)C)NC(C)C)nn5)nc4c3n2)nn1)NC(C)C" ?
Output: 6.36

* * *

// reported ΔTm for each item listed
Species: Homo sapiens
Assay: Binding affinity to human telomeric 5'-FAMd(G3[T2AG3]3)-TAMRA-3' assessed as melting temperature at 1 uM by FRET assay
Expressed in °C, but write only the number.

Example entries begin here.
>  <compound>
NCCCCn1cc(-c2ccc3ccc4ccc(-c5cn(CCCCN)nn5)nc4c3n2)nn1

>  <result_units>
°C

>  <ΔTm>
12.9

$$$$
>  <compound>
CC(C)/N=C(/NCCn1cc(-c2ccc3ccc4ccc(-c5cn(CCN/C(=N\C(C)C)NC(C)C)nn5)nc4c3n2)nn1)NC(C)C

>  <result_units>
°C

>  <ΔTm>
9.7

$$$$
>  <compound>
N=C(N)NCCCn1cc(-c2ccc3ccc4ccc(-c5cn(CCCNC(=N)N)nn5)nc4c3n2)nn1

>  <result_units>
°C

>  <ΔTm>
18

$$$$

Task: Quick one: ΔTm for "CC(C)/N=C(/NCCCCn1cc(-c2ccc3ccc4ccc(-c5cn(CCCCN/C(=N\C(C)C)NC(C)C)nn5)nc4c3n2)nn1)NC(C)C" ?
Output: 15.1

Task: Next: "NCCn1cc(-c2ccc3ccc4ccc(-c5cn(CCN)nn5)nc4c3n2)nn1"
Output: 5.5

* * *

// reported pKd for each item listed
Assay: Binding affinity to c-KIT G-quadruplex 5'-biotin-d[T9G3CG3CGCGAG3AG4]-3' (unknown origin) assessed as dissociation constant by surface plasmon resonance assay
Set-up: species or system Homo sapiens
pKd (log units): -log10 of the concentration in mol/L.

Task: Quick one: pKd for "CC(C)/N=C(/NCCCn1cc(-c2ccc3ccc4ccc(-c5cn(CCCN/C(=N\C(C)C)NC(C)C)nn5)nc4c3n2)nn1)NC(C)C" ?
Output: 7.48

Task: Next: "CC(C)/N=C(/NCCn1cc(-c2ccc3ccc4ccc(-c5cn(CCN/C(=N\C(C)C)NC(C)C)nn5)nc4c3n2)nn1)NC(C)C"
Output: 7.40

Task: Next: "N=C(N)NCCCn1cc(-c2ccc3ccc4ccc(-c5cn(CCCNC(=N)N)nn5)nc4c3n2)nn1"
Output: 7.55

Task: Next: "N=C(N)NCCCCn1cc(-c2ccc3ccc4ccc(-c5cn(CCCCNC(=N)N)nn5)nc4c3n2)nn1"
Output: 7.54

Task: Next: "N=C(N)NCCn1cc(-c2ccc3ccc4ccc(-c5cn(CCNC(=N)N)nn5)nc4c3n2)nn1"
Output: 7.30

Task: Next: "NCCCn1cc(-c2ccc3ccc4ccc(-c5cn(CCCN)nn5)nc4c3n2)nn1"
Output: 7.35

Task: Next: "CC(C)/N=C(/NCCCCn1cc(-c2ccc3ccc4ccc(-c5cn(CCCCN/C(=N\C(C)C)NC(C)C)nn5)nc4c3n2)nn1)NC(C)C"
Output: 7.46

Task: Next: "NCCCCn1cc(-c2ccc3ccc4ccc(-c5cn(CCCCN)nn5)nc4c3n2)nn1"
Output: 7.30

Task: Next: "NCCn1cc(-c2ccc3ccc4ccc(-c5cn(CCN)nn5)nc4c3n2)nn1"
Output: 7.33

* * *

Species on record: Homo sapiens
Experiment: Binding affinity to c-KIT G-quadruplex 5'-FAM-G3CG3CGCGAG3AG4-TAMRA-3' (unknown origin) assessed as melting temperature at 0.5 uM by FRET assay
measurement_kind: ΔTm (°C)
Expressed in °C, but write only the number.

Example entries begin here.
>  <compound>
CC(C)/N=C(/NCCn1cc(-c2ccc3ccc4ccc(-c5cn(CCN/C(=N\C(C)C)NC(C)C)nn5)nc4c3n2)nn1)NC(C)C

>  <measurement_kind>
ΔTm

>  <observed_value>
7.4

$$$$
>  <compound>
N=C(N)NCCn1cc(-c2ccc3ccc4ccc(-c5cn(CCNC(=N)N)nn5)nc4c3n2)nn1

>  <measurement_kind>
ΔTm

>  <observed_value>
11

$$$$
>  <compound>
NCCCn1cc(-c2ccc3ccc4ccc(-c5cn(CCCN)nn5)nc4c3n2)nn1

>  <measurement_kind>
ΔTm

>  <observed_value>
9.8

$$$$

Task: Quick one: ΔTm for "N=C(N)NCCCCn1cc(-c2ccc3ccc4ccc(-c5cn(CCCCNC(=N)N)nn5)nc4c3n2)nn1" ?
Output: 13.8

Task: Next: "NCCn1cc(-c2ccc3ccc4ccc(-c5cn(CCN)nn5)nc4c3n2)nn1"
Output: 3.7

Task: Next: "NCCCCn1cc(-c2ccc3ccc4ccc(-c5cn(CCCCN)nn5)nc4c3n2)nn1"
Output: 11.1

* * *

Experiment: Binding affinity to hairpin 5'-biotin-d[T10ATAGCTATAT7ATAGCTATA]-3' (unknown origin) assessed as dissociation constant by surface plasmon resonance assay
Design: species or system Homo sapiens
Hi! Could you tag entries with Kd below 1000 nM as YES, and those at or above as NO? Much appreciated.

>  <compound>
NCCCn1cc(-c2ccc3ccc4ccc(-c5cn(CCCN)nn5)nc4c3n2)nn1

>  <label_value>
YES

$$$$
>  <compound>
N=C(N)NCCn1cc(-c2ccc3ccc4ccc(-c5cn(CCNC(=N)N)nn5)nc4c3n2)nn1

>  <label_value>
NO

$$$$
>  <compound>
NCCn1cc(-c2ccc3ccc4ccc(-c5cn(CCN)nn5)nc4c3n2)nn1

>  <label_value>
NO

$$$$
>  <compound>
N=C(N)NCCCn1cc(-c2ccc3ccc4ccc(-c5cn(CCCNC(=N)N)nn5)nc4c3n2)nn1

>  <label_value>
NO

$$$$

Below: the item to evaluate.
Task: # TODO verify Kd < 1000 nM strictly for this molecule: "NCCCCn1cc(-c2ccc3ccc4ccc(-c5cn(CCCCN)nn5)nc4c3n2)nn1"
Output: NO

* * *

Species: Homo sapiens
Experiment: Binding affinity to human telomeric 5'-FAMd(G3[T2AG3]3)-TAMRA-3' assessed as melting temperature at 2 uM by FRET assay
measurement_kind: ΔTm

Example entries begin here.
>  <compound>
NCCCCn1cc(-c2ccc3ccc4ccc(-c5cn(CCCCN)nn5)nc4c3n2)nn1

>  <observed_value>
15.8 °C

$$$$
>  <compound>
CC(C)/N=C(/NCCCn1cc(-c2ccc3ccc4ccc(-c5cn(CCCN/C(=N\C(C)C)NC(C)C)nn5)nc4c3n2)nn1)NC(C)C

>  <observed_value>
14.5 °C

$$$$
>  <compound>
NCCn1cc(-c2ccc3ccc4ccc(-c5cn(CCN)nn5)nc4c3n2)nn1

>  <observed_value>
6.8 °C

$$$$
>  <compound>
N=C(N)NCCCn1cc(-c2ccc3ccc4ccc(-c5cn(CCCNC(=N)N)nn5)nc4c3n2)nn1

>  <observed_value>
22 °C

$$$$
>  <compound>
CC(C)/N=C(/NCCn1cc(-c2ccc3ccc4ccc(-c5cn(CCN/C(=N\C(C)C)NC(C)C)nn5)nc4c3n2)nn1)NC(C)C

>  <observed_value>
13.6 °C

$$$$
>  <compound>
CC(C)/N=C(/NCCCCn1cc(-c2ccc3ccc4ccc(-c5cn(CCCCN/C(=N\C(C)C)NC(C)C)nn5)nc4c3n2)nn1)NC(C)C

>  <observed_value>
18.1 °C

$$$$
>  <compound>
NCCCn1cc(-c2ccc3ccc4ccc(-c5cn(CCCN)nn5)nc4c3n2)nn1

>  <observed_value>
16.1 °C

$$$$
>  <compound>
N=C(N)NCCCCn1cc(-c2ccc3ccc4ccc(-c5cn(CCCCNC(=N)N)nn5)nc4c3n2)nn1

>  <observed_value>
21.8 °C

$$$$

Task: Quick one: ΔTm for "N=C(N)NCCn1cc(-c2ccc3ccc4ccc(-c5cn(CCNC(=N)N)nn5)nc4c3n2)nn1" ?
Output: 18.9 °C

Task: Next: "C[n+]1ccc(-c2c3nc(c(-c4cc[n+](C)cc4)c4ccc([nH]4)c(-c4cc[n+](C)cc4)c4ccc([nH]4)c(-c4cc[n+](C)cc4)c4nc2C=C4)C=C3)cc1"
Output: > 35 °C

* * *

Species: Homo sapiens
Assay: Binding affinity to c-KIT G-quadruplex 5'-FAM-G3CG3CGCGAG3AG4-TAMRA-3' (unknown origin) assessed as melting temperature at 0.5 uM by FRET assay
// reported ΔTm for each item listed
Expressed in °C, but write only the number.

Example entries begin here.
>  <compound>
N=C(N)NCCCn1cc(-c2ccc3ccc4ccc(-c5cn(CCCNC(=N)N)nn5)nc4c3n2)nn1

>  <ΔTm (°C)>
11.4

$$$$
>  <compound>
CC(C)/N=C(/NCCCCn1cc(-c2ccc3ccc4ccc(-c5cn(CCCCN/C(=N\C(C)C)NC(C)C)nn5)nc4c3n2)nn1)NC(C)C

>  <ΔTm (°C)>
10.3

$$$$

Moving on to the next compound.
Task: Quick one: ΔTm for "CC(C)/N=C(/NCCCn1cc(-c2ccc3ccc4ccc(-c5cn(CCCN/C(=N\C(C)C)NC(C)C)nn5)nc4c3n2)nn1)NC(C)C" ?
Output: 8.3
